assay: Serum pharmacokinetics of DHM after PO and IP administration; format: in vivo, mice; conditions: male, C57BL/6J, mouse, serum, po, 50 mg/kg, male mice, DHM 50 mg/kg PO; mean ± SEM; read-out: Serum AUC0→24
EXPERIMENTAL READOUT: AUC(0-t) (µM·h)

[[record]]
compound = "O=C1c2c(O)cc(O)cc2O[C@H](c2cc(O)c(O)c(O)c2)[C@H]1O [DHM, Dihydromyricetin]"
experimental_readout = "AUC(0-t)"
readout_number = 2.51


====

assay: Serum pharmacokinetics of DHM after PO and IP administration; format: in vivo, mice; conditions: male, C57BL/6J, mouse, serum, ip, 50 mg/kg, male mice, DHM 50 mg/kg IP; mean ± SEM
EXPERIMENTAL READOUT: Cmax

[[record]]
compound = "O=C1c2c(O)cc(O)cc2O[C@H](c2cc(O)c(O)c(O)c2)[C@H]1O [DHM, Dihydromyricetin]"
result = "38.3 µM"


====

assay: Serum pharmacokinetics of DHM after PO and IP administration; format: in vivo, mice; settings: C57BL/6J, mouse, serum; male mice, DHM 50 mg/kg PO
EXPERIMENTAL READOUT: Tmax (min)

[[record]]
molecule = "O=C1c2c(O)cc(O)cc2O[C@H](c2cc(O)c(O)c(O)c2)[C@H]1O [DHM, Dihydromyricetin]"
readout_number = 15


====

assay: Serum pharmacokinetics of DHM after PO and IP administration; assay type: in vivo, mice; conditions: C57BL/6J, mouse, serum; male mice, DHM 50 mg/kg IP; read-out: Serum T1/2 (converted)
EXPERIMENTAL READOUT: half-life (h)

[[record]]
compound = "O=C1c2c(O)cc(O)cc2O[C@H](c2cc(O)c(O)c(O)c2)[C@H]1O [DHM, Dihydromyricetin]"
u = "h"
readout_number = 1.59


====

Experiment: Serum pharmacokinetics of DHM after PO and IP administration
Format: in vivo, mice
Settings: female, C57BL/6J, mouse, serum, po, 50 mg/kg, female mice, DHM 50 mg/kg PO; read-out: Serum AUC0→24
Description: Eight-week-old male and female C57BL/6J mice (Jackson’s Laboratories, Bar Harbor, ME, USA) were housed 4 mice to a cage (separated by sex) and maintained on 12-h light, 12-h dark cycles (lights on at 0700 h) in the animal facility at the Department of Animal Sciences, Rutgers University. […] Duration of LORR was determined by ability to return upright 3 times within 30 s. […]
EXPERIMENTAL READOUT: AUC(0-t) (µM·h)

[[record]]
compound = "O=C1c2c(O)cc(O)cc2O[C@H](c2cc(O)c(O)c(O)c2)[C@H]1O [DHM, Dihydromyricetin]"
experimental_readout = "AUC(0-t)"
readout_number = 0.728


====

test: Serum pharmacokinetics of DHM after PO and IP administration; format: in vivo, mice; details: male, C57BL/6J, mouse, serum, po, 50 mg/kg, male mice, DHM 50 mg/kg PO; mean ± SEM
EXPERIMENTAL READOUT: Cmax (nM)

[[record]]
compound = "O=C1c2c(O)cc(O)cc2O[C@H](c2cc(O)c(O)c(O)c2)[C@H]1O [DHM, Dihydromyricetin]"
readout_number = 1880


====

experiment: Serum pharmacokinetics of DHM after PO and IP administration; format: in vivo, mice; conditions: female, C57BL/6J, mouse, serum, po, 50 mg/kg, female mice, DHM 50 mg/kg PO; mean ± SEM
EXPERIMENTAL READOUT: Cmax (nM)

[[record]]
compound = "O=C1c2c(O)cc(O)cc2O[C@H](c2cc(O)c(O)c(O)c2)[C@H]1O [DHM, Dihydromyricetin]"
readout_number = 623


====

assay: Serum pharmacokinetics of DHM after PO and IP administration; assay type: in vivo, mice; conditions: female, C57BL/6J, mouse, serum, po, 50 mg/kg, female mice, DHM 50 mg/kg PO
EXPERIMENTAL READOUT: Cmax (nM)

[[record]]
compound = "O=C1c2c(O)cc(O)cc2O[C@H](c2cc(O)c(O)c(O)c2)[C@H]1O [DHM, Dihydromyricetin]"
u = "nM"
readout_number = 620


====

assay: Serum pharmacokinetics of DHM after PO and IP administration; assay type: in vivo, mice; conditions: male, C57BL/6J, mouse, serum, po, 50 mg/kg, male mice, DHM 50 mg/kg PO
EXPERIMENTAL READOUT: Cmax (nM)

[[record]]
compound = "O=C1c2c(O)cc(O)cc2O[C@H](c2cc(O)c(O)c(O)c2)[C@H]1O [DHM, Dihydromyricetin]"
readout_number = 1900


====

assay: Serum pharmacokinetics of DHM after PO and IP administration; type: in vivo, mice; settings: C57BL/6J, mouse, serum; female mice, DHM 50 mg/kg IP; read-out: Serum T1/2 (converted)
EXPERIMENTAL READOUT: half-life (min)

[[record]]
compound = "O=C1c2c(O)cc(O)cc2O[C@H](c2cc(O)c(O)c(O)c2)[C@H]1O [DHM, Dihydromyricetin]"
experimental_readout = "half-life"
readout_number = 45.6


====

experiment: Serum pharmacokinetics of DHM after PO and IP administration; format: in vivo, mice; conditions: male, C57BL/6J, mouse, serum, ip, 50 mg/kg, male mice, DHM 50 mg/kg IP
EXPERIMENTAL READOUT: Cmax (µM)

[[record]]
molecule = "O=C1c2c(O)cc(O)cc2O[C@H](c2cc(O)c(O)c(O)c2)[C@H]1O [DHM, Dihydromyricetin]"
experimental_readout = "Cmax"
readout_number = 38.3


====

assay: Serum pharmacokinetics of DHM after PO and IP administration; format: in vivo, mice; details: male, C57BL/6J, mouse, serum, ip, 50 mg/kg, male mice, DHM 50 mg/kg IP; read-out: Serum AUC0→24
EXPERIMENTAL READOUT: AUC(0-t) (µM·h)

[[record]]
molecule = "O=C1c2c(O)cc(O)cc2O[C@H](c2cc(O)c(O)c(O)c2)[C@H]1O [DHM, Dihydromyricetin]"
u = "µM·h"
readout_number = 18.1


====

test: Serum pharmacokinetics of DHM after PO and IP administration; type: in vivo, mice; settings: female, C57BL/6J, mouse, serum, ip, 50 mg/kg, female mice, DHM 50 mg/kg IP; read-out: Serum AUC0→24
EXPERIMENTAL READOUT: AUC(0-t) (µM·h)

[[record]]
compound = "O=C1c2c(O)cc(O)cc2O[C@H](c2cc(O)c(O)c(O)c2)[C@H]1O [DHM, Dihydromyricetin]"
experimental_readout = "AUC(0-t)"
u = "µM·h"
readout_number = 17.3


====

assay: Serum pharmacokinetics of DHM after PO and IP administration; format: in vivo, mice; settings: female, C57BL/6J, mouse, serum, ip, 50 mg/kg, female mice, DHM 50 mg/kg IP
EXPERIMENTAL READOUT: Cmax (µM)

[[record]]
compound = "O=C1c2c(O)cc(O)cc2O[C@H](c2cc(O)c(O)c(O)c2)[C@H]1O [DHM, Dihydromyricetin]"
u = "µM"
readout_number = 23.8

